Reported inhibition values for the following compounds.
- Test system: Mast/stem cell growth factor receptor Kit (Homo sapiens), P10721 [T670I]
- Sequence (P10721 whole entry T670I): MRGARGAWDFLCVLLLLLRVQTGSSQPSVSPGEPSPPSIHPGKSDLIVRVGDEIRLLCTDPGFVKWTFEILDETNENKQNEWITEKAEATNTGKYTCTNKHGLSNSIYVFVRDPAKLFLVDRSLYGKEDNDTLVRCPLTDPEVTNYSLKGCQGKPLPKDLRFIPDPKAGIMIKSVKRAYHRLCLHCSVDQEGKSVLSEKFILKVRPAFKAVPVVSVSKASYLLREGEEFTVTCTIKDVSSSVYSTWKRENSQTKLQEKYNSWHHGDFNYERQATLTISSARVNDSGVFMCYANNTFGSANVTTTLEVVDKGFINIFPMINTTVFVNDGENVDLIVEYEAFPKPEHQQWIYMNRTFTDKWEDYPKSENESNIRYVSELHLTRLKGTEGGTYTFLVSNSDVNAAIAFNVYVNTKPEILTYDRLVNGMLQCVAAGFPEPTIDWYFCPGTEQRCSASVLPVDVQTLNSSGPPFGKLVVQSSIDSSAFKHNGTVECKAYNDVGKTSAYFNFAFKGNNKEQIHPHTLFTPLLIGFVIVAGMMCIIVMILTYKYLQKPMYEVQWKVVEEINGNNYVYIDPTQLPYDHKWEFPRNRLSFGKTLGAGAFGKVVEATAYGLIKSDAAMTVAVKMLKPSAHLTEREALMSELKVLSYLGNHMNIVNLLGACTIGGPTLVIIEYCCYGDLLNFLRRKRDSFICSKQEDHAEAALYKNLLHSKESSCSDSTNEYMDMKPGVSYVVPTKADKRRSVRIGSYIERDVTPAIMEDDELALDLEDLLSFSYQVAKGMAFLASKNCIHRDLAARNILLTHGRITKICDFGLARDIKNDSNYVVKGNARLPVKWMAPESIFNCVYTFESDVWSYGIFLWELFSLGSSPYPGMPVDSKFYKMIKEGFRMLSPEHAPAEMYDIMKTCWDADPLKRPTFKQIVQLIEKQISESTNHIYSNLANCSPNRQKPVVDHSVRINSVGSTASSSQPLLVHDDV
- Condition: at 1 µM
Express it in %; write the number only.

Known results for compounds:
Smi: CC(=O)NCc1cccc(C#Cc2cncnc2Nc2ccc(OCc3cccc(F)c3)c(Cl)c2)c1
Result value: 1.39
//
Smi: CCn1c(-c2nonc2N)nc2c(C#CC(C)(C)O)nc(OC[C@H](N)c3ccccc3)cc21
Result value: 0.72
//
Smi: Fc1ccc(-c2cc(-c3c[nH]nc3-c3ccccn3)ccn2)cc1
Result value: 8.03
//
Smi: COc1ccc(CNC(=O)c2ccc(-c3cc(-c4nnc(C)o4)ccc3C)cc2)cc1
Result value: 3.18
//
Smi: Cc1cccc(Nc2ncc(-c3ccccc3)o2)c1
Result value: 48

**Query** # value lookup — system Mast/stem cell growth factor receptor Kit (Homo sapiens), P10721 [T670I], readout inhibition, item COc1cc(/C=N/Nc2ncnc3[nH]ncc23)ccc1O
**Result** 7.67
